Recorded values, source the supplement of paper PMC13380429.

System: Calu-3
Assay: cell viability relative to DMSO; higher = less toxic
Conditions: 72 h; 1000 nM
Assign cell viability to each entry below.
Use % as the unit, but write only the number.

Task: Requested field: cell viability. Item: Cc1[nH]c2ccc(O)cc2c1CCN [2-methyl-5-hydroxytryptamine]
Result: 101

Task: Please look up its cell viability: `C/C=C/C[C@@H](C)C(=O)[C@H]1C(=O)N[C@@H](C(C)C)C(=O)N(C)CC(=O)N(C)[C@@H](CC(C)C)C(=O)N[C@@H](C(C)C)C(=O)N(C)[C@@H](CC(C)C)C(=O)N[C@@H](C)C(=O)N[C@H](C)C(=O)N(C)[C@@H](CC(C)C)C(=O)N(C)[C@@H](CC(C)C)C(=O)N(C)[C@@H](C(C)C)C(=O)N1C`
Result: 105

Task: Reported cell viability for `CN(C(=O)/C=C/c1ccoc1)[C@@H]1CC[C@@]2(O)[C@H]3Cc4ccc(O)c5c4[C@@]2(CCN3CC2CC2)[C@H]1O5` : what is it?
Result: 96.8

Task: Given the entry `COc1cc(C#N)ccc1S(=O)(=O)Nc1ccc2c(c1)cc(C)c(=O)n2C` , report its measured cell viability.
Result: 101
